The following compounds are shown together with reported pKi values.
# assayed.target: Dihydrofolate reductase (Homo sapiens, UniProt P00374)
# Sequence (P00374 whole entry): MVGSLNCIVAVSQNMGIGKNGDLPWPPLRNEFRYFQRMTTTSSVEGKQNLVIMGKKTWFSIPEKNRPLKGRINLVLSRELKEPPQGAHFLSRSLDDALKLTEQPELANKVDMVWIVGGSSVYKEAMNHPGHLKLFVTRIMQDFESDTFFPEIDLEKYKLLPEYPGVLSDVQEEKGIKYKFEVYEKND
pKi: −log10 of the molar value.
endpoint.label: pKi

> print(dat)
                           compound  test.result
1   N[C@H](Cc1c[nH]c2ccccc12)C(=O)O         3.06
2  Nc1ccnc(N)n1 [Diaminopyrimidine]         3.74
